The measured values listed here are drawn from patent US20250197387A1.

target: BCL-XL (Homo sapiens, UniProt Q07817); construct: endogenous in cells; host or cells: MOLT-4; assay: BCL-XL degradation assay, western blot in MOLT-4 cells, 16 h; format: cell-based; conditions: western blot, MOLT-4 cells, 16 h; read-out: Bcl-xL WB in MOLT-4 degradation 16 h: Average Dmax %
Sequence (Q07817 whole entry): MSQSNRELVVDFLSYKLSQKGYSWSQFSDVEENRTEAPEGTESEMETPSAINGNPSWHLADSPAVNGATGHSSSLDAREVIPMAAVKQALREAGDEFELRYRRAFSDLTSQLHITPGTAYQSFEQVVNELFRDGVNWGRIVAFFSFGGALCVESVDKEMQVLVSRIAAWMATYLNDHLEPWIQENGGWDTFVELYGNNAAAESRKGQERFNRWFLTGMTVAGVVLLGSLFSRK
measurement_label: Dmax

Need Dmax of Cc1ncsc1-c1ccc([C@H](C)NC(=O)[C@@H]2C[C@@H](O)CN2C(=O)[C@@H](NC(=O)CCCNC(=O)CCC2(Cn3ncc(-c4ccc(N5CCc6cccc(C(=O)Nc7nc8ccccc8s7)c6C5)nc4C(=O)O)c3C)CCCCC2)C(C)(C)C)cc1 , thanks. > 75%

Need Dmax of Cc1ncsc1-c1ccc([C@H](C)NC(=O)[C@@H]2C[C@@H](O)CN2C(=O)[C@@H](NC(=O)CCCCCCCC(=O)NCCOc2ccc(C(=O)Nc3nc4ccccc4s3)c3c2CCN(c2ccc(-c4cnn(CC5CCCCC5)c4C)c(C(=O)O)n2)C3)C(C)(C)C)cc1 , thanks. > 75%

Need Dmax of Cc1ncsc1-c1ccc([C@H](C)NC(=O)[C@@H]2C[C@@H](O)CN2C(=O)[C@@H](c2cc(OC3CCN(CCCS(=O)(=O)NC(=O)c4nc(N5CCc6cccc(C(=O)Nc7nc8ccccc8s7)c6C5)ccc4-c4cnn(CC5CCCCC5)c4C)CC3)no2)C(C)C)cc1 , thanks. > 75%

Need Dmax of Cc1ncsc1-c1ccc([C@H](C)NC(=O)[C@@H]2C[C@@H](O)CN2C(=O)[C@@H](NC(=O)CCc2ccc(S(=O)(=O)NC(=O)c3ccc(N4CCN(CC5=C(c6ccc(Cl)cc6)CCC(C)(C)C5)CC4)cc3)cc2)C(C)(C)C)cc1 , thanks. < 50%

Need Dmax of Cc1ncsc1-c1ccc(CNC(=O)[C@@H]2C[C@@H](O)CN2C(=O)[C@@H](NC(=O)C2(F)CC2)C(C)(C)C)c(OCCCNC(=O)c2nc(N3CCc4cccc(C(=O)Nc5nc6ccccc6s5)c4C3)ccc2-c2cnn(CC3CCCCC3)c2C)c1 , thanks. 50 to 75%

Need Dmax of Cc1ncsc1-c1ccc(CNC(=O)[C@@H]2C[C@@H](O)CN2C(=O)[C@@H](NC(=O)C2(F)CC2)C(C)(C)C)c(OCCCC(=O)N(C)CC#Cc2ccc(OCCCc3sc(N4CCc5cccc(C(=O)Nc6nc7ccccc7s6)c5C4)nc3C(=O)O)c(F)c2)c1 , thanks. > 75%

Need Dmax of Cc1cc([C@@H](C(=O)N2C[C@H](O)C[C@H]2C(=O)NCc2ccc(-c3scnc3C)cc2OCCCCCCNC(=O)c2nc(N3CCc4cccc(C(=O)Nc5nc6ccccc6s5)c4C3)ccc2-c2cnn(CC3CCCCC3)c2C)C(C)C)on1 , thanks. > 75%

Need Dmax of Cc1ncsc1-c1ccc([C@H](C)NC(=O)[C@@H]2C[C@@H](O)CN2C(=O)[C@@H](NC(=O)CCCCCCC(=O)N2CCN(CC3(C)CCC(c4ccc(Cl)cc4)=C(CN4CCN(c5ccc(C(=O)NS(=O)(=O)c6ccc(N[C@H](CCN7CCOCC7)CSc7ccccc7)c(S(=O)(=O)C(F)(F)F)c6)cc5)CC4)C3)CC2)C(C)(C)C)cc1 (some centres unmarked) , thanks. > 75%

---

Molecular target: BCL-XL (Homo sapiens)
Construct: endogenous in cells; host or cells: MOLT-4
Assay: BCL-XL degradation assay, western blot in MOLT-4 cells, 16 h
Format: cell-based
Settings: western blot, MOLT-4 cells, 16 h; read-out: Bcl-xL WB in MOLT-4 degradation 16 h: Mean external-Abs DC50
Method: Compounds treatment: compounds were reconstituted in DMSO to make a stock concentration of 10 mM. MOLT-4 cells were maintained in RPMI-1640+10% FBS+1% Penicillin-Streptomycin. […] Supernatants were collected and protein concentration was measured by BCA assay kit (Solarbio. PC0020-500) following the manufacturer's protocol. […] The western blot images were obtained using Odyssey Imaging System and quantified using Image Studio Lite Ver 5.2 software. […]
Would you kindly list DC50 for each of these compounds?

Need DC50 of Cc1ncsc1-c1ccc(CNC(=O)[C@@H]2C[C@@H](O)CN2C(=O)[C@@H](NC(=O)C2(F)CC2)C(C)(C)C)c(OCCCC(=O)NCCOc2ccc(C(=O)Nc3nc4ccccc4s3)c3c2CCN(c2ccc(-c4cnn(CC5CCCCC5)c4C)c(C(=O)O)n2)C3)c1 , thanks. 100 to 500 nM

Need DC50 of Cc1ncsc1-c1ccc(CNC(=O)[C@@H]2C[C@@H](O)CN2C(=O)[C@@H](NC(=O)C2(F)CC2)C(C)(C)C)c(OCC(=O)N2CCN(CCCC3(Cn4ncc(-c5ccc(N6CCc7cccc(C(=O)Nc8nc9ccccc9s8)c7C6)nc5C(=O)O)c4C)CCCCC3)CC2)c1 , thanks. > 1000 nM
